pKi: −log10 of the molar value.
Compiled literature pKi, tested on Orexin receptor type 2 (Homo sapiens, UniProt O43614).
Attribute Measured: pKi

[[record]]
molecule = "CC(C)CC1C2CC(Oc3ccc(C(F)(F)F)cn3)C(C2)N1C(=O)c1ccccc1-c1ncccn1 (racemic)"
attribute_measured = "pKi"
value_operator = "="
recorded_measurement = 5.52

[[record]]
molecule = "C[C@H]1[C@H](Oc2cnc(C(F)(F)F)cn2)CCCN1C(=O)c1nccnc1-c1ccccc1"
attribute_measured = "pKi"
value_operator = "="
recorded_measurement = 5.09

[[record]]
molecule = "C[C@@H]1[C@H]2C[C@@H](Oc3ccc(C(F)(F)F)cn3)[C@H](C2)N1C(=O)c1ncccc1-c1ncccn1 (relative stereo)"
attribute_measured = "pKi"
value_operator = "="
recorded_measurement = 5.72

[[record]]
molecule = "C[C@H]1[C@H](Nc2ccc(C(F)(F)F)cn2)CCCN1C(=O)c1cccc(F)c1-c1ncccn1 (relative stereo)"
attribute_measured = "pKi"
value_operator = "="
recorded_measurement = 6.76

[[record]]
molecule = "Cc1nc(C(=O)N2CCCCC2C#Cc2cnc3ccccc3c2)c(-c2ccccc2)s1 (stereo not shown)"
attribute_measured = "pKi"
value_operator = "<"
recorded_measurement = 5.21

[[record]]
molecule = "C[C@@H]1[C@H]2C[C@@H](Oc3ccc(C(F)(F)F)cn3)[C@H](C2)N1C(=O)c1ccccc1-c1cccc(F)n1"
attribute_measured = "pKi"
value_operator = "="
recorded_measurement = 6.46

[[record]]
molecule = "Cc1cc(C)nc(N2CC3CN(C(=O)c4c(F)cccc4-c4nccs4)CC3C2)n1 (stereo not shown)"
attribute_measured = "pKi"
value_operator = "="
recorded_measurement = 7.82

